# Procedure text: Partition coefficient (logP)
# Type: physicochemical
# Measurement conditions: octanol/water
Measurement label: logP
Answer with the value's number alone.

If you can, please state the reported logP value of CCn1c(=O)c2[nH]c(-c3ccc(OCC(=O)NCCN)cc3)nc2n(CC)c1=O .
-0.06

So what's the measured logP for this one? CCn1c(=O)c2nc(-c3ccc(OCC(=O)NCCNC(=O)[C@@H](N)CCCCN)cc3)[nH]c2n(CC)c1=O
-1.2

Reported logP, compound Cn1c(=O)c2[nH]c(-c3ccc(OCC(=O)NCCN)cc3)nc2n(C)c1=O : ____
-0.63

Looking for the measured logP of Cn1c(=O)c2nc(-c3ccc(OCC(=O)Nc4ccc(CC(=O)NCCN)cc4)cc3)[nH]c2n(C)c1=O , can you help?
-0.05

// returns reported logP for input CCCn1c(=O)c2[nH]c(-c3ccc(OCC(=O)NCCN)cc3)nc2n(CCC)c1=O
0.81

----------
Would you mind telling me the reported Kb of each entry?
# Target desc: Adenosine A2 receptor (Homo sapiens) (UniProt P29275+P29274)
# Procedure text: Antagonism of NECA-induced stimulation of adenylate cyclase activity in human platelet membranes at A2-adenosine receptor; value ranges from […]-[…]
# Assay type: functional, cell membranes
For clarity, give the value followed by its unit.

For the compound shown here, Cn1c(=O)c2nc(-c3ccc(OCC(=O)Nc4ccc(CC(=O)NCCN)cc4)cc3)[nH]c2n(C)c1=O , give the reported Kb.
63 nM

Name the reported Kb value associated with the compound CCn1c(=O)c2nc(-c3ccc(OCC(=O)NCCN)cc3)[nH]c2n(CC)c1=O
21 nM

// query Kb value for entry CCn1c(=O)c2nc(-c3ccc(OCC(=O)Nc4ccc(C)cc4)cc3)[nH]c2n(CC)c1=O
100 nM

Any idea what its Kb is? The compound is CCn1c(=O)c2nc(-c3ccc(OCC(=O)Nc4ccc(CC(=O)OC)cc4)cc3)[nH]c2n(CC)c1=O
210 nM
